System: PEO1 OVCA cell line
Test: CellTiter-Blue cell viability assay, PEO1
Assay type: cell-based
Conditions: Homo sapiens; PEO1 cells, 72 hours, growth/viability
Quantity Name: pIC50
FYI, pIC50 means -log10 of a concentration in mol per litre.

Can you share its pIC50? I mean this compound: Nc1ccn([C@@H]2O[C@H](CO)[C@@H](O)C2(F)F)c(=O)n1 [Gemcitabine, 2′,2′-difluorodeoxycytidine]
6.87

----------
Test system: OVCAR3 OVCA cell line
Assay: CellTiter-Blue cell viability assay, OVCAR3
Type: cell-based
Conditions: Homo sapiens, OVCAR-3; OVCAR3 cells, 72 hours, growth/viability
Quantity Name: pIC50
// pIC50: -log10(molar conc.)

Can you share its pIC50? I mean this compound: "Nc1ccn([C@@H]2O[C@H](CO)[C@@H](O)C2(F)F)c(=O)n1"
5.21
